The reported numbers originate from paper PMC10397247.

Molecular target: T1, 4H2944-AA
T1 chain: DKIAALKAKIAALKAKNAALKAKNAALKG
Assay: two-hybrid library CCmax;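 note: natural log of median RNA to DNA barcode read ratio; higher means stronger binding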
Conditions: mean of both orientations
measurement_kind: interaction score
Numbers only.

binder: DKIAALKAKIAALEAENAALEAKIAALEG [4H2837-AA]
measurement_kind: interaction score
meas_value: 0.691

binder: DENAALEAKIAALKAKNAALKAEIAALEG [4H1401-AA]
measurement_kind: interaction score
meas_value: -1.67

We next turn to a different binder, shown below.
Prompt: So what's the measured interaction score for this one? DENAALEAKNAALKAKIAALKAEIAALEG [4H1513-AA]
Completion: -1.86
